molecular target: KiSS-1 receptor (Homo sapiens); assay: Agonist activity at GPR54 expressed in CHO cells assessed as intracellular calcium mobilization at 10 nM relative to KP-10; assay type: functional, cell-based
Square brackets hold non-standard residues; d marks the D form. Peptide text beside a SMILES is read from it. Ahx = NCCCCCC(=O)O
READOUT TYPE: Activity
Give me the value, and tack the unit on after it.

Use the examples below as a reference point.
COMPOUND: CC(C)C[C@H](NC(=O)CNC(=O)[C@H](Cc1ccccc1)NC(=O)c1ccc(CO)cc1)C(=O)N[C@@H](CCCNC(=N)N)C(=O)N[C@@H](Cc1c[nH]c2ccccc12)C(N)=O
VAL: 95.4%

COMPOUND: CC(C)C[C@H](NC(=O)CNC(=O)[C@H](Cc1ccccc1)NC(=O)c1ccccc1O)C(=O)N[C@@H](CCCNC(=N)N)C(=O)N[C@@H](Cc1c[nH]c2ccccc12)C(N)=O
VAL: 90.1%

COMPOUND: CC(C)C[C@H](NC(=O)CNC(=O)[C@H](Cc1ccccc1)NC(=O)c1c[nH]cn1)C(=O)N[C@@H](CCCNC(=N)N)C(=O)N[C@@H](Cc1c[nH]c2ccccc12)C(N)=O
VAL: 88.4%

COMPOUND: CC(C)C[C@H](NC(=O)CNC(=O)[C@H](Cc1ccccc1)NC(=O)c1ccc(CNCc2ccccc2)cc1)C(=O)N[C@@H](CCCNC(=N)N)C(=O)N[C@@H](Cc1c[nH]c2ccccc12)C(N)=O
VAL: 86.5%

Prompt: Check the records and state Activity for CC(C)C[C@H](NC(=O)CNC(=O)[C@H](Cc1ccccc1)NC(=O)CCCCCN)C(=O)N[C@@H](CCCNC(=N)N)C(=O)N[C@@H](Cc1c[nH]c2ccccc12)C(N)=O (H-[Ahx]FGLRW-NH2)
Completion: 1.6%

----------
biological target: KiSS-1 receptor (Homo sapiens); test: Agonist activity at GPR54 expressed in CHO cells assessed as intracellular calcium mobilization at 10 nM relative to KP-10; assay type: functional, cell-based
READOUT TYPE: Activity (%)
Answer format: numeric, % implied, no suffix.

MOL SMILES: CC(C)C[C@H](NC(=O)CNC(=O)[C@H](Cc1ccccc1)NC(=O)c1ccc(O)cc1)C(=O)N[C@@H](CCCNC(=N)N)C(=O)N[C@@H](Cc1c[nH]c2ccccc12)C(N)=O
ASSAY TARGET: KiSS-1 receptor (Homo sapiens)
Activity, %: 94.6

MOL SMILES: COc1ccc(C(=O)N[C@@H](Cc2ccccc2)C(=O)NCC(=O)N[C@@H](CC(C)C)C(=O)N[C@@H](CCCNC(=N)N)C(=O)N[C@@H](Cc2c[nH]c3ccccc23)C(N)=O)cc1
ASSAY TARGET: KiSS-1 receptor (Homo sapiens)
Activity, %: 104

Next item in the queue.
Prompt: Identify measured Activity corresponding to CC(C)C[C@H](NC(=O)CNC(=O)[C@H](Cc1ccccc1)NC(=O)c1ccc(CN(Cc2ccccc2)Cc2ccccc2)cc1)C(=O)N[C@@H](CCCNC(=N)N)C(=O)N[C@@H](Cc1c[nH]c2ccccc12)C(N)=O
Completion: 9.3

----------
biological target: KiSS-1 receptor (Homo sapiens); test: Agonist activity at GPR54 expressed in CHO cells assessed as intracellular calcium mobilization
Square brackets hold non-standard residues; d marks the D form. Peptide text beside a SMILES is read from it. 4Amb = NCc1ccc(C(=O)O)cc1; 3Abz = Nc1cccc(C(=O)O)c1; 2Abz = Nc1ccccc1C(=O)O
READOUT TYPE: pEC50
In textbook form, pEC50 equals minus log to base ten of the concentration in mol/L.

COMPOUND: COc1ccc(C(=O)N[C@@H](Cc2ccccc2)C(=O)NCC(=O)N[C@@H](CC(C)C)C(=O)N[C@@H](CCCNC(=N)N)C(=O)N[C@@H](Cc2c[nH]c3ccccc23)C(N)=O)cc1
pEC50: 8.92

COMPOUND: CC(C)C[C@H](NC(=O)CNC(=O)[C@H](Cc1ccccc1)NC(=O)c1ccc(CO)cc1)C(=O)N[C@@H](CCCN=C(N)N)C(=O)N[C@@H](Cc1c[nH]c2ccccc12)C(N)=O
pEC50: 8.52

COMPOUND: CC(C)C[C@H](NC(=O)CNC(=O)[C@H](Cc1ccccc1)NC(=O)c1cccc(N)c1)C(=O)N[C@@H](CCCNC(=N)N)C(=O)N[C@@H](Cc1c[nH]c2ccccc12)C(N)=O (H-[3Abz]FGLRW-NH2)
pEC50: 8.33

COMPOUND: CC(C)C[C@H](NC(=O)CNC(=O)[C@H](Cc1ccccc1)NC(=O)c1ccc(CNCc2ccccc2)cc1)C(=O)N[C@@H](CCCNC(=N)N)C(=O)N[C@@H](Cc1c[nH]c2ccccc12)C(N)=O
pEC50: 8.48

COMPOUND: CC(C)C[C@H](NC(=O)CNC(=O)[C@H](Cc1ccccc1)NC(=O)c1cccc(O)c1)C(=O)N[C@@H](CCCNC(=N)N)C(=O)N[C@@H](Cc1c[nH]c2ccccc12)C(N)=O
pEC50: 8.92

COMPOUND: CC(C)C[C@H](NC(=O)CNC(=O)[C@H](Cc1ccccc1)NC(=O)c1ccc(CNCc2ccccn2)cc1)C(=O)N[C@@H](CCCNC(=N)N)C(=O)N[C@@H](Cc1c[nH]c2ccccc12)C(N)=O
pEC50: 8.57

COMPOUND: CC(C)C[C@H](NC(=O)CNC(=O)[C@H](Cc1ccccc1)NC(=O)c1ccccc1N)C(=O)N[C@@H](CCCNC(=N)N)C(=O)N[C@@H](Cc1c[nH]c2ccccc12)C(N)=O (H-[2Abz]FGLRW-NH2)
pEC50: 8.51

COMPOUND: CC(C)C[C@H](NC(=O)CNC(=O)[C@H](Cc1ccccc1)NC(=O)c1ccccn1)C(=O)N[C@@H](CCCN=C(N)N)C(=O)N[C@@H](Cc1c[nH]c2ccccc12)C(N)=O
pEC50: 9.10

Here is the next item to consider.
Prompt: Give the value of pEC50 reported for the following: CC(C)C[C@H](NC(=O)CNC(=O)[C@H](Cc1ccccc1)NC(=O)c1ccc(CN)cc1)C(=O)N[C@@H](CCCNC(=N)N)C(=O)N[C@@H](Cc1c[nH]c2ccccc12)C(N)=O (H-[4Amb]FGLRW-NH2)
Completion: 8.51

----------
target: KiSS-1 receptor (Homo sapiens); assay: Agonist activity at GPR54 expressed in CHO cells assessed as intracellular calcium mobilization at 10 nM relative to KP-10; format: functional, cell-based
READOUT TYPE: Activity (%)
Numeric only. Scale: %

MOL SMILES: CC(C)C[C@H](NC(=O)CNC(=O)[C@H](Cc1ccccc1)NC(=O)c1ccc([N+](=O)[O-])cc1)C(=O)N[C@@H](CCCNC(=N)N)C(=O)N[C@@H](Cc1c[nH]c2ccccc12)C(N)=O
READOUT TYPE: Activity
VAL: 94.3
--
MOL SMILES: CC(C)C[C@H](NC(=O)CNC(=O)[C@H](Cc1ccccc1)NC(=O)c1ccc(CN(Cc2ccccn2)Cc2ccccn2)cc1)C(=O)N[C@@H](CCCNC(=N)N)C(=O)N[C@@H](Cc1c[nH]c2ccccc12)C(N)=O
READOUT TYPE: Activity
VAL: 88.9

Pending molecule:
Prompt: Give a short answer stating reported Activity for CC(C)C[C@H](NC(=O)CNC(=O)[C@H](Cc1ccccc1)NC(=O)c1ccc(Cl)cc1)C(=O)N[C@@H](CCCNC(=N)N)C(=O)N[C@@H](Cc1c[nH]c2ccccc12)C(N)=O .
Completion: 91.8

----------
biological target: KiSS-1 receptor (Homo sapiens, UniProt Q969F8); experiment: Ratio of EC50 of drug for GPR54 to EC50 of KP-10 for GPR54; assay type: functional
Sequence (Q969F8 whole entry): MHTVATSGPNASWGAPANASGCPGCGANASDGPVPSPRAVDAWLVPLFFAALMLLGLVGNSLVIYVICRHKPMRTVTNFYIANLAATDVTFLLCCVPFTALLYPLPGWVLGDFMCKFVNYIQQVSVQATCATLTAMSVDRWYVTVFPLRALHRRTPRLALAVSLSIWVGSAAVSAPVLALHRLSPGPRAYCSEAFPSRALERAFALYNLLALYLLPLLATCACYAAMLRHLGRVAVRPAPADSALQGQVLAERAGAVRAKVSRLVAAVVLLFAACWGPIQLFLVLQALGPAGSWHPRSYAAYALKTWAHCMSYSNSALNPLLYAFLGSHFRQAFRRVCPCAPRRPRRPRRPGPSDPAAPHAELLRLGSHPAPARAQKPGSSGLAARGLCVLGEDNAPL
Square brackets hold non-standard residues; d marks the D form. Peptide text beside a SMILES is read from it. 3Abz = Nc1cccc(C(=O)O)c1
# reported Ratio EC50; entries follow

Answered examples (5):
MOLECULE: CC(C)C[C@H](NC(=O)CNC(=O)[C@H](Cc1ccccc1)NC(=O)c1ccc(CNCc2ccccn2)cc1)C(=O)N[C@@H](CCCNC(=N)N)C(=O)N[C@@H](Cc1c[nH]c2ccccc12)C(N)=O
ASSAY TARGET: KiSS-1 receptor (Homo sapiens, UniProt Q969F8)
Ratio EC50: 4.5
//
MOLECULE: CC(C)C[C@H](NC(=O)CNC(=O)[C@H](Cc1ccccc1)NC(=O)c1cccc(N)c1)C(=O)N[C@@H](CCCNC(=N)N)C(=O)N[C@@H](Cc1c[nH]c2ccccc12)C(N)=O (H-[3Abz]FGLRW-NH2)
ASSAY TARGET: KiSS-1 receptor (Homo sapiens, UniProt Q969F8)
Ratio EC50: 4.2
//
MOLECULE: COc1ccc(C(=O)N[C@@H](Cc2ccccc2)C(=O)NCC(=O)N[C@@H](CC(C)C)C(=O)N[C@@H](CCCNC(=N)N)C(=O)N[C@@H](Cc2c[nH]c3ccccc23)C(N)=O)cc1
ASSAY TARGET: KiSS-1 receptor (Homo sapiens, UniProt Q969F8)
Ratio EC50: 1.6
//
MOLECULE: CC(C)C[C@H](NC(=O)CNC(=O)[C@H](Cc1ccccc1)NC(=O)c1ccc[nH]1)C(=O)N[C@@H](CCCNC(=N)N)C(=O)N[C@@H](Cc1c[nH]c2ccccc12)C(N)=O
ASSAY TARGET: KiSS-1 receptor (Homo sapiens, UniProt Q969F8)
Ratio EC50: 1.7
//
MOLECULE: CC(C)C[C@H](NC(=O)CNC(=O)[C@H](Cc1ccccc1)NC(=O)c1ccc(CO)cc1)C(=O)N[C@@H](CCCNC(=N)N)C(=O)N[C@@H](Cc1c[nH]c2ccccc12)C(N)=O
ASSAY TARGET: KiSS-1 receptor (Homo sapiens, UniProt Q969F8)
Ratio EC50: 4.7

# evaluate next
Prompt: Give me measured Ratio EC50, please, for this molecule: CC(C)C[C@H](NC(=O)CNC(=O)[C@H](Cc1ccccc1)NC(=O)c1ccc([N+](=O)[O-])cc1)C(=O)N[C@@H](CCCNC(=N)N)C(=O)N[C@@H](Cc1c[nH]c2ccccc12)C(N)=O
Completion: 1.5

Provenance of the data: ChEMBL document CHEMBL1145440
